The following binders are shown together with reported Kd values.
Target: T1, EsCas13d, nuclease-dead (Eubacterium siraeum, UniProt B0MS50, R295A;H300A;R849A;H854A)
T1 sequence: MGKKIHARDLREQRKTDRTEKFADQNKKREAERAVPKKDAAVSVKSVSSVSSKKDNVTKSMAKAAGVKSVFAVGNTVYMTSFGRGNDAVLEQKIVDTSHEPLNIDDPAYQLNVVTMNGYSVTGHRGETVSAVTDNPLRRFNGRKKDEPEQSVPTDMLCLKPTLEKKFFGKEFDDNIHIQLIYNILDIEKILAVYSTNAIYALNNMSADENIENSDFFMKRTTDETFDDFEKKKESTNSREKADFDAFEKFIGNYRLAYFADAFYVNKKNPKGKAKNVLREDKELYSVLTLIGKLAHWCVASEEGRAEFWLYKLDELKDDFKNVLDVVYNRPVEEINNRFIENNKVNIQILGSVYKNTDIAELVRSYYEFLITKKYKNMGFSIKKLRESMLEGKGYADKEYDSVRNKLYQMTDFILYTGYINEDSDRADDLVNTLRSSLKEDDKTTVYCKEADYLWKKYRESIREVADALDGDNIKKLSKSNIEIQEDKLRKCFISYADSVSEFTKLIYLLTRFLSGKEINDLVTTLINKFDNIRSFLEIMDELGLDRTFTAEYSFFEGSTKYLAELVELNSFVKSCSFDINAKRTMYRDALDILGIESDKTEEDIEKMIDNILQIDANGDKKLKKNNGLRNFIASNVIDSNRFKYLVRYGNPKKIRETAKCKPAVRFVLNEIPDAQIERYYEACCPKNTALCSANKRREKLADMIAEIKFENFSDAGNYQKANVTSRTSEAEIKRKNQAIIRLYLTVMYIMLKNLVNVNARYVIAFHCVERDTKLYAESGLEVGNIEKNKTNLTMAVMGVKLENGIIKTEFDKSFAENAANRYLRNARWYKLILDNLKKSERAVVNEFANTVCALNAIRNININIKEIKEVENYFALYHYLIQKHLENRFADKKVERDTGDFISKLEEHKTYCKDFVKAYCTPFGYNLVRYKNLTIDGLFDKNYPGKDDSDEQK
Experiment: crRNA (strand 1, pre-loaded); Mg2+; 40 mM Tris-HCl pH 7.5, 150 mM NaCl, 6 mM MgCl2, 1 mM DTT, 0.1% Tween-20, 0.2 mg/ml BSA; 25 C; 10 min per concentration, then washed
Details: tags: His6-TwinStrep-SUMO cleaved; N-terminal SNAP kept (SNAP-Surface 488); label: 3' end held by stalled T7 RNA polymerase
Reply with just the number (in nM).

A selection of reference data follows.
BINDER | Kd, nM
target 2 MT 5'PFS GUA 3'PFS UCG (mixed) RNA 1: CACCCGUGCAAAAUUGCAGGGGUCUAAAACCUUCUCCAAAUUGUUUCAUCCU RNA 2: GGGAAUGGAUCCACAUCUACGAAUUCGUAAGGAUGAAACAAUUUGGAGAAGUCGAGAUCGGAAGAGCACACGU | 9.5
target 2 MT 5'PFS AAC 3'PFS UCA (mixed) RNA 1: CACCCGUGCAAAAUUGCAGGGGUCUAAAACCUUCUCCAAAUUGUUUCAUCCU RNA 2: GGGAAUGGAUCCACAUCUACGAAUUCAACAGGAUGAAACAAUUUGGAGAAGUCAAGAUCGGAAGAGCACACGU | 9.3
target 2 MT 5'PFS AUA 3'PFS AUA (mixed) RNA 1: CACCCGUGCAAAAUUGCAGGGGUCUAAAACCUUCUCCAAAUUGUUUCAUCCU RNA 2: GGGAAUGGAUCCACAUCUACGAAUUCAUAAGGAUGAAACAAUUUGGAGAAGAUAAGAUCGGAAGAGCACACGU | 5.2

Would you kindly look at the next entry?
For the binder target 1 insC 3' of 19,insU 3' of 2 (mixed) RNA 1: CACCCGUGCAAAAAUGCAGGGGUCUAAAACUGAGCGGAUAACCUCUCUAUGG RNA 2: GGGAAUGGAUCCACAUCUACGAAUUCGUACCAUCAGAGAGGUUAUCCGCUCUACCGAGAUCGGAAGAGCACACGU , give its reported Kd.
32.7

Source listed as paper PMC10786891.
